Assay System: 5-hydroxytryptamine receptor 2B (Homo sapiens) (UniProt P41595)
Sequence (P41595 whole entry): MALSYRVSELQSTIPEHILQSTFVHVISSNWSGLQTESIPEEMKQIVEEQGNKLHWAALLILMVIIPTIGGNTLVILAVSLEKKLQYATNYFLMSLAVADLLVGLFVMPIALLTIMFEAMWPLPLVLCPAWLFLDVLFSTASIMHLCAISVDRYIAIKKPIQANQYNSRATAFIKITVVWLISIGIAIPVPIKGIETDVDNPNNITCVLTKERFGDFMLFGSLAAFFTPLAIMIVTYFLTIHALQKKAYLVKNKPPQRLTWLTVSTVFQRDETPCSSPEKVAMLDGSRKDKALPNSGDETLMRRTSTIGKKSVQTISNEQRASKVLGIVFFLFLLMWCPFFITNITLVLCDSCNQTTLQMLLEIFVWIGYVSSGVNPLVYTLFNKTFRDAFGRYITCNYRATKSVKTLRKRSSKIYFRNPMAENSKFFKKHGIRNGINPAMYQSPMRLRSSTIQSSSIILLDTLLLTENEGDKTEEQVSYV
Test Name: SafetyScreen: 5-HT2B Human Serotonin GPCR [125I](±)DOI Binding Agonist Radioligand LeadHunter Assay, catalogue number: 1333
Measurement Parameters: Test compound concentration 10.0 uM
Metric Name: inhibition (%)
The response must be a number in % with no trailing unit.

Q) Consider the molecule shown here: CC(C)[C@@H](Nc1ncnc2[nH]c(-c3cnn(C)c3C#N)cc12)c1ccc2c(n1)OCCO2 What is its recorded inhibition?
A) 40

Q) Request the reported inhibition associated with CC(C)[C@H](Nc1ncnc2[nH]ccc12)c1ccc2c(c1)S(=O)(=O)CCC2
A) 54

Q) Would you mind telling me what inhibition value was observed for CNC(=O)Cn1cc(-c2cc3c(N[C@@H](c4ccc5c(c4)S(=O)(=O)CCC5)C(C)C)ncnc3[nH]2)cn1 ?
A) 25

Q) Would you mind telling me what inhibition value was observed for CC(C)[C@H](Nc1ncnc2[nH]c(-c3cnn(C)c3C#N)cc12)c1ccc2c(n1)OCCO2 ?
A) 18

====

For each of the compounds below, state its inhibition.
Assay System: 5-hydroxytryptamine receptor 3A (Homo sapiens)
Test Name: SafetyScreen: 5-HT3 Human Serotonin Ion Channel Binding Antagonist Radioligand LeadHunter Assay, catalogue number: 411
Measurement Parameters: Test compound concentration 10.0 uM
State the answer as a number, implicitly in %.

Q) Param readout= inhibition; system= 5-hydroxytryptamine receptor 3A (Homo sapiens); entry= CNC(=O)Cn1cc(-c2cc3c(N[C@@H](c4ccc5c(c4)S(=O)(=O)CCC5)C(C)C)ncnc3[nH]2)cn1 ; returns value.
A) 5

Q) Under 5-hydroxytryptamine receptor 3A (Homo sapiens): inhibition value of CC(C)[C@H](Nc1ncnc2[nH]c(-c3cnn(C)c3C#N)cc12)c1ccc2c(n1)OCCO2 ?
A) 6

Q) Can you look up inhibition on 5-hydroxytryptamine receptor 3A (Homo sapiens) for CC(C)[C@@H](Nc1ncnc2[nH]c(C(=O)N[C@@H]3CCN(C)C3)cc12)c1ccc2c(c1)S(=O)(=O)CCC2 ?
A) 2

Q) For 5-hydroxytryptamine receptor 3A (Homo sapiens), provide inhibition of CC(C)[C@H](Nc1ncnc2[nH]ccc12)c1ccc2c(c1)S(=O)(=O)CCC2 please.
A) 8

Q) Please provide the recorded inhibition for CNCc1cc(-c2cc3c(N[C@@H](c4ccc5c(c4)S(=O)(=O)CCC5)C(C)C)ncnc3[nH]2)co1 , tested on 5-hydroxytryptamine receptor 3A (Homo sapiens).
A) 0

Q) Hi! What's the reported inhibition for Cc1nn(C)cc1-c1cc2c(N[C@H](c3ccc4c(c3)S(=O)(=O)CCC4)C(C)C)ncnc2[nH]1 on 5-hydroxytryptamine receptor 3A (Homo sapiens)?
A) 6

Q) Missing value: inhibition, 5-hydroxytryptamine receptor 3A (Homo sapiens), entry CC(C)[C@@H](Nc1ncnc2[nH]c(-c3cnn(C)c3C#N)cc12)c1ccc2c(n1)OCCO2 . Fill in?
A) 4

Q) # returns recorded inhibition (system: 5-hydroxytryptamine receptor 3A (Homo sapiens)) for COc1ccc([C@H](Cc2nnn[nH]2)NC(=O)c2ncnc3[nH]ccc23)cc1
A) 6

Q) API: value(readout= inhibition, system= 5-hydroxytryptamine receptor 3A (Homo sapiens), query= C[C@H](C(=O)O)[C@@H](NC(=O)c1ncnc2[nH]ccc12)c1ccc(Br)cc1 )
A) 2

Q) Query inhibition on 5-hydroxytryptamine receptor 3A (Homo sapiens) for Cn1ncc(-c2cc3c(N[C@@H](c4ccc5c(n4)OCCO5)C(C)(C)C)ncnc3[nH]2)c1C#N
A) 3

The measured values listed here are drawn from ChEMBL document CHEMBL5442334.
